Data credit: the Human Domainome abundance scans (Beltran et al. 2025)

// values below are reported abundance fitness
B1: DnaJ homolog subfamily C member 2, residues 451 to 503; numbered along this chain, Q99543 (parent)
chain: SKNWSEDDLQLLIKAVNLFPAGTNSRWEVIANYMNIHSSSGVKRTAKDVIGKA

Variants of: B1
PROCEDURE TEXT: abundance fitness (aPCA) (normalised: wild type 0, dead -1); higher = more abundant; growth selection in yeast, the domain comes from the species named
MEASUREMENT SETUP: Homo sapiens
Format: numeric value only, no unit, no commentary.

// below: answered variants
MUTATION LABEL	abundance fitness
L9R	-0.054
V16N	-0.071

## Input Provide abundance fitness value for the following variant: `E6L`
## Output -0.404

## Input Answer with the recorded abundance fitness of `K2L` only.
## Output -0.287

## Input Supply measured abundance fitness of `S39W` in your reply.
## Output -0.183

## Input Please give measured abundance fitness of the following entry: `K2I`
## Output 0.1

## Input Give a short answer stating reported abundance fitness for `L9A` .
## Output -0.014

## Input Please report the measured abundance fitness for `Q10K`
## Output -0.107

## Input Write down abundance fitness measured for item `I50P`
## Output -0.632

## Input Note down abundance fitness recorded for `G22W`
## Output -0.293

## Input Give the value of abundance fitness reported for the following: `L11C`
## Output -0.403
